Data origin: patent US8969366B2

Test system: p-MAPK (T202/Y204) in A375 human melanoma cells, having a mutated B-RAF
Test: p-MAPK (T202/Y204) ArrayScan assay
Type: cell-based
Settings: A-375, A375 cells treated 1.5 or 2 hours, cytoplasmatic p-MAPK fluorescence intensity, read-out: Array Scan A375 IC50
quantity_name: IC50 (µM)

[a] Cn1c2c(c(-c3cccc(NC(=O)Nc4ccc(C(F)(F)F)cc4)c3)c1-c1ccnc(N)n1)C(=O)NCC2
[b] Cn1c(-c2ccnc(NC(=O)c3cccs3)n2)cc2c1CCNC2=O
For a and b , which recorded IC50 is lower? Which one? Tell me its label. b

###

System: human melanoma cells A375 (with a mutated B-RAF)
Experiment: In vitro cell proliferation assay, A375
Format: cell-based
Conditions: A-375, 72 hours treatment, cell number by ATP monitoring system
Where a name gives a salt, the structure may show the parent alone.
quantity_name: IC50 (nM)

- Cn1c(-c2ccnc(NCc3cccc(Cl)c3)n2)cc2c1CCNC2=O [compound 6, hydrochloride]: 1760

[A] Cn1c(-c2ccnc(NCc3cc(Br)cs3)n2)cc2c1CCNC2=O [compound 7, hydrochloride]
[B] Cn1c(-c2ccnc(C#Cc3cccc(Cl)c3)n2)cc2c1CCNC2=O
[C] Cn1c(-c2ccnc(NC(=O)c3cc(Br)cs3)n2)cc2c1CCNC2=O
// ascending sort on recorded IC50 # output: labels, in the requested order B, C, A
